- SYSTEM_TESTED: T1, CRBN, Q96SW2;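 also: pooled lentiviral library of zinc finger degron-EGFP fusions in mCherry-positive Jurkat cells, FACS-sorted after compound exposure, with degron abundance counted by next-generation sequencing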
- T1 chain: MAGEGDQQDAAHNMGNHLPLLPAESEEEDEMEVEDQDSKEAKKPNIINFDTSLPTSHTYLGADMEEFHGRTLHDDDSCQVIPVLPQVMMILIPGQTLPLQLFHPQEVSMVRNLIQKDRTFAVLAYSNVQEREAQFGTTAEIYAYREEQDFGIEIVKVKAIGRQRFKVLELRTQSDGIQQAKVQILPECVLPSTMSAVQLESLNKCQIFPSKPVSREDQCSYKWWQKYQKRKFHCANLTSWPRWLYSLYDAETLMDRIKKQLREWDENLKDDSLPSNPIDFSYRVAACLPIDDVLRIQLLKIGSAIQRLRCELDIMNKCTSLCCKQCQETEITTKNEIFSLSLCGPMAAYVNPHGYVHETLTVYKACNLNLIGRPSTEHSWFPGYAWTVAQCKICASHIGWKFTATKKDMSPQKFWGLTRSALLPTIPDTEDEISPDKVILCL
- ASSAY_INFO: log2 fold change of degron read counts, EGFP-low vs EGFP+ sorted cells (limma voom), compound-induced degradation; higher = more compound-induced degradation of the degron-EGFP fusion; degrons are variants of IKZF1/3 zinc finger 2; compound dose not given here
- SETTINGS: Jurkat; 18 h; compound: thalidomide
In all, about 8,300 sequences were measured (“log2 fold change of degron read counts, EGFP-low vs EGFP+ sorted cells (limma voom), compound-induced degradation”: median about -1.1, highest 2% from about 3.2 on). Shown is part of a subset that was picked to be rich in the highest values.
# Lookup of reported log2 fold change of degron read counts keyed by entry
OBSERVED_PROPERTY: log2 fold change of degron read counts

| CHAIN_SEQUENCE | OBSERVED_PROPERTY | DATA_VALUE |
| --- | --- | --- |
| FQCPQCGAAFTQKGNLLRHIKL [46F_47Q_49P_50Q_52G_53A_54A_55F_67L_, Q9UKT9] | log2 fold change of degron read counts | 3.27 |
| LTCPICGFVCTQKGNLLRHIKL [46L_47T_49P_50I_52G_53F_54V_55C_67L_, Q9UKT9] | log2 fold change of degron read counts | 2.24 |
| FQCNQCGHIFTQKGNLLRHIKL [46F_47Q_49N_50Q_52G_53H_54I_55F_67L_, Q9UKT9] | log2 fold change of degron read counts | -2.7 |
| FLCDVCGACFTQKGNLLRHIKL [46F_47L_49D_50V_52G_53A_54C_55F_67L_, Q9UKT9] | log2 fold change of degron read counts | -0.875 |
| FLCEICGAQFTQKGNLLRHIKL [46F_47L_49E_50I_52G_53A_54Q_55F_67L_, Q9UKT9] | log2 fold change of degron read counts | 2.07 |
| FICEICGAQFTQKGNLLRHIKL [46F_47I_49E_50I_52G_53A_54Q_55F_67L_, Q9UKT9] | log2 fold change of degron read counts | 3.16 |
| FQCPVCGAAFTQKGNLLRHIKL [46F_47Q_49P_50V_52G_53A_54A_55F_67L_, Q9UKT9] | log2 fold change of degron read counts | 3.69 |
| LGCPICGFVCTQKGNLLRHIKL [46L_47G_49P_50I_52G_53F_54V_55C_67L_, Q9UKT9] | log2 fold change of degron read counts | 0.747 |
| FQCNICGASFTQKGNLLRHIKL [46F_47Q_49N_50I_52G_53A_54S_55F_67L_, Q9UKT9] | log2 fold change of degron read counts | 3.34 |
| FICNQCGAEFTQKGNLLRHIKL [46F_47I_49N_50Q_52G_53A_54E_55F_67L_, Q9UKT9] | log2 fold change of degron read counts | -1.75 |
| FFCEICGRAFTQKGNLLRHIKL [46F_47F_49E_50I_52G_53R_54A_55F_67L_, Q9UKT9] | log2 fold change of degron read counts | -1.11 |
| FACNQCGHQFTQKGNLLRHIKL [46F_47A_49N_50Q_52G_53H_54Q_55F_67L_, Q9UKT9] | log2 fold change of degron read counts | -2.92 |
| FCCNICGARFTQKGNLLRHIKL [46F_47C_49N_50I_52G_53A_54R_55F_67L_, Q9UKT9] | log2 fold change of degron read counts | 1.57 |
| FFCEICGAQFTQKGNLLRHIKL [46F_47F_49E_50I_52G_53A_54Q_55F_67L_, Q9UKT9] | log2 fold change of degron read counts | 1.93 |
| LCCPICGFVCTQKGNLLRHIKL [46L_47C_49P_50I_52G_53F_54V_55C_67L_, Q9UKT9] | log2 fold change of degron read counts | 2.1 |
| LYCPICGFVCTQKGNLLRHIKL [46L_47Y_49P_50I_52G_53F_54V_55C_67L_, Q9UKT9] | log2 fold change of degron read counts | 1.2 |
| FRCDVCGALFTQKGNLLRHIKL [46F_47R_49D_50V_52G_53A_54L_55F_67L_, Q9UKT9] | log2 fold change of degron read counts | -1.08 |
| FDCEICGAQFTQKGNLLRHIKL [46F_47D_49E_50I_52G_53A_54Q_55F_67L_, Q9UKT9] | log2 fold change of degron read counts | 1.29 |
| FVCPQCGAEFTQKGNLLRHIKL [46F_47V_49P_50Q_52G_53A_54E_55F_67L_, Q9UKT9] | log2 fold change of degron read counts | -0.352 |
| FWCNICGASFTQKGNLLRHIKL [46F_47W_49N_50I_52G_53A_54S_55F_67L_, Q9UKT9] | log2 fold change of degron read counts | 0.481 |
| FQCNVCGAGFTQKGNLLRHIKL [46F_47Q_49N_50V_52G_53A_54G_55F_67L_, Q9UKT9] | log2 fold change of degron read counts | 1.66 |
| LMCPICGFVCTQKGNLLRHIKL [46L_47M_49P_50I_52G_53F_54V_55C_67L_, Q9UKT9] | log2 fold change of degron read counts | 1.67 |
| FQCEICGAQFTQKGNLLRHIKL [46F_47Q_49E_50I_52G_53A_54Q_55F_67L_, Q9UKT9] | log2 fold change of degron read counts | 3.56 |
| FVCEICGRMFTQKGNLLRHIKL [46F_47V_49E_50I_52G_53R_54M_55F_67L_, Q9UKT9] | log2 fold change of degron read counts | -0.297 |
| FVCPVCGAAFTQKGNLLRHIKL [46F_47V_49P_50V_52G_53A_54A_55F_67L_, Q9UKT9] | log2 fold change of degron read counts | 3.08 |
| FECEICGAQFTQKGNLLRHIKL [46F_47E_49E_50I_52G_53A_54Q_55F_67L_, Q9UKT9] | log2 fold change of degron read counts | 2.5 |
| FGCPVCGAAFTQKGNLLRHIKL [46F_47G_49P_50V_52G_53A_54A_55F_67L_, Q9UKT9] | log2 fold change of degron read counts | 1.29 |
| FECDQCGALFTQKGNLLRHIKL [46F_47E_49D_50Q_52G_53A_54L_55F_67L_, Q9UKT9] | log2 fold change of degron read counts | -2.52 |
| FMCNICGASFTQKGNLLRHIKL [46F_47M_49N_50I_52G_53A_54S_55F_67L_, Q9UKT9] | log2 fold change of degron read counts | 0.902 |
